Data origin: patent US10040781B2

- TGT: TBK1 (Homo sapiens (Human))
- EXPERIMENTAL DETAILS: TBK1 TR-FRET enzymatic assay
pIC50: −log10 of the molar value.
READOUT NAME: pIC50

// worked examples, pIC50 included
N#Cc1cc(-c2ncnc(Nc3ccc(N4CCN(C5COC5)CC4)cc3)n2)ccc1OCCCN1CCCC1=O :: 6.29
N#Cc1cc(-c2ncnc(Nc3ccc(N4CCN(C5COC5)CC4)cc3)n2)ccc1O[C@H]1CCN(C(=O)[C@H](O)CO)CC1(F)F :: 8.70
C[C@H](O)C(=O)N1CC[C@@H](Oc2ccc(-c3ncnc(Nc4ccc(N5CCN(C6COC6)CC5)cc4)n3)cc2C#N)C[C@H]1C :: 7.03
N#CCC(=O)N1CC[C@H](Oc2ccc(-c3ncnc(Nc4ccc(N5CCN(C6COC6)CC5)cc4)n3)cc2C#N)[C@H](F)C1 :: 8.70
Cc1cc(Nc2ncnc(-c3ccc(O[C@H]4CCN(C(=O)CO)C[C@H]4F)c(C#N)c3)n2)ccc1N1CCN(C2COC2)CC1 :: 8.70

(P) COc1cc(Nc2ncnc(-c3ccc(OC4CCOCC4)c(C#N)c3)n2)cc(OC)c1OC
(Q) CC(=O)Nc1ccc(Nc2ncnc(-c3ccc(O[C@H]4CCN(C(=O)[C@@H]5CCC(=O)N5)C[C@H]4F)c(C#N)c3)n2)cn1
(R) COc1cc(Nc2ncnc(-c3ccc(O[C@H]4CCN(C(=O)CO)C[C@H]4F)c(C#N)c3)n2)ccc1N1CCC(N2CCOCC2)CC1
Request: Give the ascending ranking of the items by reported pIC50. Order the labels as requested and list them.
Result: Q, R, P
(Q: 8.10, R: 8.70, P: 9.00)

----------
- TGT: TBK1 (Homo sapiens (Human), UniProt Q9UHD2)
- Sequence (Q9UHD2 whole entry): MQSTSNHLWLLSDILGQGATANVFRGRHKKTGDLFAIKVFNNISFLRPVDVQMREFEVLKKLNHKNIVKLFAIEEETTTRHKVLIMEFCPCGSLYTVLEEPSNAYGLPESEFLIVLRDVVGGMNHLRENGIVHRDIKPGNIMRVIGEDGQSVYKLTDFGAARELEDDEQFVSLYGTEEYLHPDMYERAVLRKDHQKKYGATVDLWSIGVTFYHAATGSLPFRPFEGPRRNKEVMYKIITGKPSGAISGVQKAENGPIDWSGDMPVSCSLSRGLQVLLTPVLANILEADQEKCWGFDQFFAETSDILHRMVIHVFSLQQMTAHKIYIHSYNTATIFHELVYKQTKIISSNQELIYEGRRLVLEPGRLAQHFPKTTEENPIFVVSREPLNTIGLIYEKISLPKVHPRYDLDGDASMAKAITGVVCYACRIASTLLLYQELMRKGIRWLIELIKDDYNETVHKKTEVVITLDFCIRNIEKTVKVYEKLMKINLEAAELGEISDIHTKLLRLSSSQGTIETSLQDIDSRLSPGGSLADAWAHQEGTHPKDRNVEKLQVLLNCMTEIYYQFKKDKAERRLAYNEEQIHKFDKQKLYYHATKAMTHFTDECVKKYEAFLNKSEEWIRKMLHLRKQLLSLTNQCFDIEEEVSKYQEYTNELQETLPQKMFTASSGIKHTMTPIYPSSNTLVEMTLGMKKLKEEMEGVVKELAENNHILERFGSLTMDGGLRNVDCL
- EXPERIMENTAL DETAILS: TBK1 TR-FRET enzymatic assay
READOUT NAME: IC50 (nM)

// worked examples, IC50 included
N#Cc1cc(-c2ncnc(Nc3ccc(N4CCN(C5COC5)CC4)cc3)n2)ccc1O[C@@H]1CCN(C(=O)C(F)F)C1 :: 21
N#Cc1cc(-c2ncnc(Nc3ccc(N4CC(O)C4)nc3)n2)ccc1OC1CCOCC1 :: 15
N#Cc1cc(-c2ncnc(Nc3ccc(N4CCN(C5COC5)CC4)cc3)n2)ccc1O[C@H]1CCN(C(=O)c2cnc(N)cn2)C[C@H]1F :: 2

(A) COc1cc(Nc2ncnc(-c3ccc(OC4CCN(C(=O)[C@H](C)O)CC4)c(C#N)c3)n2)ccc1N1CCN(C2COC2)CC1
(B) CC(C)[C@H](O)C(=O)N1CC[C@H](Oc2ccc(-c3ncnc(Nc4ccc(N5CCN(C6COC6)CC5)cc4)n3)cc2C#N)[C@H](F)C1
(C) N#Cc1cc(-c2ncnc(Nc3ccc(N4CCO[C@@H](CO)C4)cc3)n2)ccc1O[C@H]1CCN(C(=O)CO)C[C@H]1F
Request: # sort list by recorded IC50, greatest to least Order the labels as requested and list them.
Result: B, A, C

----------
- TGT: TBK1 (Homo sapiens (Human), UniProt Q9UHD2)
- EXPERIMENTAL DETAILS: TBK1 TR-FRET enzymatic assay;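 note: phosphorylation of a biotinylated Ser/Thr peptide by purified full-length recombinant TBK1, read by TR-FRET after 240 min at 25 °C, IC50 is the geometric mean of at least four runs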
pIC50: −log10 of the molar value.
READOUT NAME: pIC50

// worked examples, pIC50 included
CC(=O)N1CC[C@H](Oc2ccc(-c3ncnc(Nc4ccc(C5CCNCC5)cc4)n3)cc2C#N)C(F)(F)C1 :: 8.52
C[C@H](O)C(=O)N1CC[C@H](Oc2ccc(-c3ncnc(Nc4ccc(N5CCN(C6COC6)[C@@H](CO)C5)cc4)n3)cc2C#N)[C@H](F)C1 :: 8.52

(A) N#Cc1cc(-c2ncnc(Nc3ccc(N4CCN(C5COC5)CC4)cc3)n2)ccc1OCC1CCOCC1
(B) CCC(=O)Nc1ccc(-c2ncnc(Nc3ccc(N4CCN(C5COC5)CC4)cc3)n2)cc1C#N
Request: // compare measured pIC50 between A and B ; output the lower one Respond using the label that marks the chosen record.
Result: B
